# experimentalSystem: hERG potassium channel (Homo sapiens)
# Construct: host or cells: HEK-293 stably expressing hERG
# Sequence (Q12809 whole entry): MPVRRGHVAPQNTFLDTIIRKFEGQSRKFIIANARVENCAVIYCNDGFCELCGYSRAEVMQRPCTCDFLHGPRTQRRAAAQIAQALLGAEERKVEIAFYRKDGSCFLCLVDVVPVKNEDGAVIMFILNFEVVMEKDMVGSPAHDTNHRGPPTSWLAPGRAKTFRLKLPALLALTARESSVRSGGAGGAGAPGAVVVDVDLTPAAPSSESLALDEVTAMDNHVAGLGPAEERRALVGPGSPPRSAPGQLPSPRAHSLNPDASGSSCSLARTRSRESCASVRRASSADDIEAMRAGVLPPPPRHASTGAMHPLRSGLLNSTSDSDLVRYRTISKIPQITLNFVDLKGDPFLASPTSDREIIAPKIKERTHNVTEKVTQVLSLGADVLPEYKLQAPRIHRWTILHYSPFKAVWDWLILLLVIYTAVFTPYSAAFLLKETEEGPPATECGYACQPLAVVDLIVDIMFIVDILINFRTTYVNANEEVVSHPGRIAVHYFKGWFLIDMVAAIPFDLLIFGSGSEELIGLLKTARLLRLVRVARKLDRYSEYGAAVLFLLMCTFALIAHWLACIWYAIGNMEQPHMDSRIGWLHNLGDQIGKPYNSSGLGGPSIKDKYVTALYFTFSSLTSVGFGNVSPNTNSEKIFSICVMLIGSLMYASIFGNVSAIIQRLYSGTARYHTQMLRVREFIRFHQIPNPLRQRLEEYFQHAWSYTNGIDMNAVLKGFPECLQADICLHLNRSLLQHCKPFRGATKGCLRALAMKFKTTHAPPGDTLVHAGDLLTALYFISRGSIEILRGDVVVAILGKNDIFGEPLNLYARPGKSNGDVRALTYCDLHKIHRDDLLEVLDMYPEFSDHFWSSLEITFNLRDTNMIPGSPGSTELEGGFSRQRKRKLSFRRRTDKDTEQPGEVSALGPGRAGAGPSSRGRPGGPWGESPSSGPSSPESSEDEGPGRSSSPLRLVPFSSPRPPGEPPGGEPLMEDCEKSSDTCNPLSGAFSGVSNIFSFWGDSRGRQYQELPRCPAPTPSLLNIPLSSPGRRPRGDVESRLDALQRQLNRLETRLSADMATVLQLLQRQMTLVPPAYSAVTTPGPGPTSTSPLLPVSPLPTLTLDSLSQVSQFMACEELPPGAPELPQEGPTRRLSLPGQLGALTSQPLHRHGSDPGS
# experimentDescription: hERG test, patch clamp on HEK-293 cells stably expressing hERG potassium channel
# Format: cell-based
# setupConditions: HEK-293 cell line stably expressing hERG, read-out: IC50 (μM) of inhibitory effect on hERG potassium channel current
measureName: IC50

molecule=O=C(O)c1ccc2nc(Cc3ccc(-c4ccc(F)c(OCc5ccc(Cl)c6cc(Cl)oc56)n4)cc3F)n(C[C@@H]3CCO3)c2c1 measurename=IC50 result="> 30 µM"
molecule="N#Cc1ccc(COc2cccc(C3CCN(Cc4nc5ccc(C(=O)O)cc5n4C[C@@H]4CCO4)CC3)n2)c(F)c1 [PF-06882961, reference compound]" measurename=IC50 result="9.35 µM"
molecule=O=C(O)c1ccc2nc(Cc3ccc(-c4cccc(OCc5ccc(Cl)c6cc(F)oc56)n4)cc3F)n(C[C@@H]3CCO3)c2c1 measurename=IC50 result="> 30 µM"
molecule=O=C(O)c1ccc2nc(Cc3ccc(-c4cccc(OCc5ccc(F)c6ccoc56)n4)cc3F)n(C[C@@H]3CCO3)c2c1 measurename=IC50 result="> 30 µM"

Determine its reported IC50: O=C(O)c1ccc2nc(Cc3ccc(-c4cccc(OCc5ccc(Cl)cc5F)n4)cc3F)n(C[C@@H]3CCO3)c2c1 [DB03, reference compound]
> 10 µM

Determine its reported IC50: `O=C(O)c1ccc2nc(Cc3ccc(-c4cccc(OCc5ccc(Cl)c6cc(Cl)oc56)n4)cc3F)n(C[C@@H]3CCO3)c2c1`
> 30 µM

###

# experimentalSystem: GLP1R (Homo sapiens, UniProt P43220)
# Sequence (P43220 24-463): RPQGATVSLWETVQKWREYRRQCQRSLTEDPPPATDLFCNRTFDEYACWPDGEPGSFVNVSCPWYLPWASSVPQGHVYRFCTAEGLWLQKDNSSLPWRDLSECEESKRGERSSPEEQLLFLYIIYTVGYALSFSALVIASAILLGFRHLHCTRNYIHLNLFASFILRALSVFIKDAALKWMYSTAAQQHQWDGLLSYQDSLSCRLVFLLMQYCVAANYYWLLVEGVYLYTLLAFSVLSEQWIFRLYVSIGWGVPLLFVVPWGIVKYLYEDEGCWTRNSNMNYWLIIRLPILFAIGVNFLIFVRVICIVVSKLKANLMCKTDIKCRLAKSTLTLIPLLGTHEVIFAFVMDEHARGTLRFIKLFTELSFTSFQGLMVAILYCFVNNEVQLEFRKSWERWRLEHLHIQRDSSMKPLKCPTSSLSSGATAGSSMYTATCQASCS
# experimentDescription: Agonist activity on GLP1R/CRE-LUC HEK293 cells (luciferase reporter, ONE-Glo)
# setupConditions: GLP1R/CRE-LUC HEK293 cells, 6 hours incubation, chemiluminescence signal
Field: label. Allowed values: met (EC50 < 3 nM) or not met (EC50 >= 3 nM).

compound=Cc1cc2c(Cl)ccc(COc3cccc(-c4ccc(Cc5nc6ccc(C(=O)O)cc6n5C[C@@H]5CCO5)c(F)c4)n3)c2o1 answerlabel="not met"

Here's an entry: `O=C(O)c1ccc2nc(Cc3ccc(-c4cccc(OCc5ccc(Cl)c6ccoc56)n4)cc3F)n(C[C@@H]3CCO3)c2c1F` . Is its EC50 below 3 nM?
met

Here's an entry: `N#Cc1ccc(COc2cccc(-c3ccc(Cc4nc5ccc(C(=O)O)cc5n4C[C@@H]4CCO4)c(F)c3)n2)c2occc12` . Is its EC50 below 3 nM?
not met

Here's an entry: `O=C(O)c1ccc2nc(Cc3ccc(-c4ccc(F)c(OCc5ccc(Cl)c6ccoc56)n4)cc3F)n(C[C@@H]3CCO3)c2c1` . Is its EC50 below 3 nM?
met

Here's an entry: O=C(O)c1ccc2nc(CC3CC=C(c4cccc(OCc5ccc(Cl)c6cc(Cl)oc56)n4)CC3)n(C[C@@H]3CCO3)c2c1 (stereo partly drawn) . Is its EC50 below 3 nM?
not met
